# System: 485368-065-R4-J2-PDC spheroids with HUVEC/MSC, viability
# assayInfo: Anticancer human tumor 485368-065-R4-J2-PDC patient-derived pancreatic carcinoma cell line growth inhibition [CLK]
# conditionInfo: second compound 3.16 µM; first compound 0.1 µM; hits give low values
# From the text: A high-throughput screen of multi-cell type tumor spheroids was designed to identify active combinations of […] and targeted small molecules. Complex spheroids include a stromal component modeled by human endothelial cells (HUVEC) and fibroblasts modeled by human mesenchymal stem cells (MSCs). […] Compounds. […] If the clinical Cmax for an agent had not been determined, the highest concentration tested was 10 microM. […]
assayEndpoint: viability, T/C (%)

>>> measured("Cn1ncnc1[C@H]1c2n[nH]c(=O)c3cc(F)cc(c23)N[C@@H]1c1ccc(F)cc1 + CN1CCN(c2cc(C(=O)Nc3cc4cc(-c5cnn(C)c5)ccc4cn3)ccn2)CC1")
1.76
>>> measured("C#Cc1c(F)ccc2cc(O)cc(-c3ncc4c(N5CC6CCC(C5)N6)nc(OCC56CCCN5CC(F)C6)nc4c3F)c12 (configuration not stated) + CNC(=O)c1ccc(Nc2nc(OC3CCCC3)c3c(-c4ccc5nc(C)oc5c4)c[nH]c3n2)c(OC)c1")
72.5
>>> measured("COc1ccc([C@@H](O)c2cc(-c3ncnc4cc(N5CCOCC5)ccc34)c(F)cc2Cl)nn1 + CNC(=O)c1ccc(Nc2nc(OC3CCCC3)c3c(-c4ccc5nc(C)oc5c4)c[nH]c3n2)c(OC)c1")
62.7
>>> measured("O=c1[nH]cc(F)c(=O)[nH]1 + CNC(=O)c1ccc(Nc2nc(OC3CCCC3)c3c(-c4ccc5nc(C)oc5c4)c[nH]c3n2)c(OC)c1")
70.4
>>> measured("CC(=O)O[C@H]1C(=O)[C@@]2(C)[C@H]([C@H](OC(=O)c3ccccc3)[C@]3(O)C[C@H](OC(=O)[C@H](O)[C@@H](NC(=O)c4ccccc4)c4ccccc4)C(C)=C1C3(C)C)[C@]1(OC(C)=O)CO[C@@H]1C[C@@H]2O + CN1CCN(c2cc(C(=O)Nc3cc4cc(-c5cnn(C)c5)ccc4cn3)ccn2)CC1")
2.46
>>> measured("C=C(F)C(=O)N1CCN(c2nc(OCC3CCCN3C)nc3c2CCN(c2cccc4cccc(Cl)c24)C3)CC1CC#N (configuration not stated) + CN1CCN(c2cc(C(=O)Nc3cc4cc(-c5cnn(C)c5)ccc4cn3)ccn2)CC1")
1.31
>>> measured("Nc1ccccc1NC(=O)c1ccc(CNC(=O)OCc2cccnc2)cc1 + CNC(=O)c1ccc(Nc2nc(OC3CCCC3)c3c(-c4ccc5nc(C)oc5c4)c[nH]c3n2)c(OC)c1")
74.8

====

# Tested on: 485368-065-R4-J2-PDC spheroids with HUVEC/MSC, viability
# assayInfo: Anticancer human tumor 485368-065-R4-J2-PDC cell line growth inhibition [CLK];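 further: spheroids exposed to compounds for seven days; 100% = DMSO vehicle control wells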
# conditionInfo: second compound 0.0316 µM; first compound 1 µM; hits give low values
Listing of recorded viability, T/C by entry.
assayEndpoint: viability, T/C (%)

>>> measured("O=C(c1cc(Cc2n[nH]c(=O)c3ccccc23)ccc1F)N1CCN(C(=O)C2CC2)CC1 + CNC(=O)c1ccc(Nc2nc(OC3CCCC3)c3c(-c4ccc5nc(C)oc5c4)c[nH]c3n2)c(OC)c1")
102
>>> measured("CCCS(=O)(=O)Nc1ccc(F)c(C(=O)c2c[nH]c3ncc(-c4ccc(Cl)cc4)cc23)c1F + CN1CCN(c2cc(C(=O)Nc3cc4cc(-c5cnn(C)c5)ccc4cn3)ccn2)CC1")
111
>>> measured("Nc1ccccc1NC(=O)c1ccc(CNC(=O)OCc2cccnc2)cc1 + CNC(=O)c1ccc(Nc2nc(OC3CCCC3)c3c(-c4ccc5nc(C)oc5c4)c[nH]c3n2)c(OC)c1")
90.3

====

# Tested on: 485368-065-R4-J2-PDC spheroids with HUVEC/MSC, viability
# assayInfo: Anticancer human tumor 485368-065-R4-J2-PDC cell line growth inhibition [CLK];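 further: spheroids exposed to compounds for seven days; 100% = DMSO vehicle control wells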
# conditionInfo: second compound 1 µM; first compound 0.3 µM; hits give low values
Mark T only when viability, T/C stays strictly below 4%. Values equal to the cut-off are F.

>>> grouplabel("NC(=O)C(=Cn1cnc(-c2cc(C(F)(F)F)cc(C(F)(F)F)c2)n1)c1cncnc1 + CNC(=O)c1ccc(Nc2nc(OC3CCCC3)c3c(-c4ccc5nc(C)oc5c4)c[nH]c3n2)c(OC)c1")
"F"
>>> grouplabel("CC(C)CC(NC(=O)C(Cc1ccccc1)NC(=O)c1cnccn1)B(O)O (stereo unspecified) + CN1CCN(c2cc(C(=O)Nc3cc4cc(-c5cnn(C)c5)ccc4cn3)ccn2)CC1")
"T"
>>> grouplabel("NC(=O)C(=Cn1cnc(-c2cc(C(F)(F)F)cc(C(F)(F)F)c2)n1)c1cncnc1 + CN1CCN(c2cc(C(=O)Nc3cc4cc(-c5cnn(C)c5)ccc4cn3)ccn2)CC1")
"F"
>>> grouplabel("C=CC(=O)Nc1cc(Nc2nccc(-c3cn(C)c4ccccc34)n2)c(OC)cc1N(C)CCN(C)C + CN1CCN(c2cc(C(=O)Nc3cc4cc(-c5cnn(C)c5)ccc4cn3)ccn2)CC1")
"T"
>>> grouplabel("C=CC(=O)Nc1cc(Nc2nccc(-c3cn(C)c4ccccc34)n2)c(OC)cc1N(C)CCN(C)C + CNC(=O)c1ccc(Nc2nc(OC3CCCC3)c3c(-c4ccc5nc(C)oc5c4)c[nH]c3n2)c(OC)c1")
"F"
>>> grouplabel("CC(C)CC(NC(=O)C(Cc1ccccc1)NC(=O)c1cnccn1)B(O)O (stereo unspecified) + CNC(=O)c1ccc(Nc2nc(OC3CCCC3)c3c(-c4ccc5nc(C)oc5c4)c[nH]c3n2)c(OC)c1")
"T"

====

Quick reference for viability, T/C among some compounds
# Test system: 485368-065-R4-J2-PDC spheroids with HUVEC/MSC, viability
# assayInfo: Anticancer human tumor 485368-065-R4-J2-PDC cell line growth inhibition [CLK];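 further: spheroids exposed to compounds for seven days; 100% = DMSO vehicle control wells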
# conditionInfo: second compound 10 µM; first compound 1 µM; hits give low values
assayEndpoint: viability, T/C (%)

>>> measured("CC(=O)O[C@H]1C(=O)[C@@]2(C)[C@H]([C@H](OC(=O)c3ccccc3)[C@]3(O)C[C@H](OC(=O)[C@H](O)[C@@H](NC(=O)c4ccccc4)c4ccccc4)C(C)=C1C3(C)C)[C@]1(OC(C)=O)CO[C@@H]1C[C@@H]2O + CN1CCN(c2cc(C(=O)Nc3cc4cc(-c5cnn(C)c5)ccc4cn3)ccn2)CC1")
1.65
>>> measured("C#Cc1c(F)ccc2cc(O)cc(-c3ncc4c(N5CC6CCC(C5)N6)nc(OCC56CCCN5CC(F)C6)nc4c3F)c12 (configuration not stated) + CN1CCN(c2cc(C(=O)Nc3cc4cc(-c5cnn(C)c5)ccc4cn3)ccn2)CC1")
1.34

====

# Test system: 485368-065-R4-J2-PDC spheroids with HUVEC/MSC, viability
# assayInfo: Anticancer human tumor 485368-065-R4-J2-PDC cell line growth inhibition [CLK];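 further: spheroids exposed to compounds for seven days; 100% = DMSO vehicle control wells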
# conditionInfo: second compound 1 µM; first compound 1 µM; hits give low values
Recorded viability, T/C values for a group of compounds are listed next.
assayEndpoint: viability, T/C (%)

>>> measured("Nc1ccccc1NC(=O)c1ccc(CNC(=O)OCc2cccnc2)cc1 + CN1CCN(c2cc(C(=O)Nc3cc4cc(-c5cnn(C)c5)ccc4cn3)ccn2)CC1")
0.42
>>> measured("COc1ccc([C@@H](O)c2cc(-c3ncnc4cc(N5CCOCC5)ccc34)c(F)cc2Cl)nn1 + CNC(=O)c1ccc(Nc2nc(OC3CCCC3)c3c(-c4ccc5nc(C)oc5c4)c[nH]c3n2)c(OC)c1")
67.6
>>> measured("C=C(F)C(=O)N1CCN(c2nc(OCC3CCCN3C)nc3c2CCN(c2cccc4cccc(Cl)c24)C3)CC1CC#N (stereo not given) + CNC(=O)c1ccc(Nc2nc(OC3CCCC3)c3c(-c4ccc5nc(C)oc5c4)c[nH]c3n2)c(OC)c1")
78.5
>>> measured("CC(Nc1ccc2c(c1)OCCn1cc(N3C(=O)OCC3C(F)F)nc1-2)C(N)=O (stereo not given) + CN1CCN(c2cc(C(=O)Nc3cc4cc(-c5cnn(C)c5)ccc4cn3)ccn2)CC1")
0.74
>>> measured("CC1(C)CCC(CN2CCN(c3ccc(C(=O)NS(=O)(=O)c4ccc(NCC5CCOCC5)c([N+](=O)[O-])c4)c(Oc4cnc5[nH]ccc5c4)c3)CC2)=C(c2ccc(Cl)cc2)C1 + CNC(=O)c1ccc(Nc2nc(OC3CCCC3)c3c(-c4ccc5nc(C)oc5c4)c[nH]c3n2)c(OC)c1")
87.2
>>> measured("COC1C=CCC(C)C(C)S(=O)(=O)NC(=O)c2ccc3c(c2)N(CC2CCC21)CC1(CCCc2cc(Cl)ccc21)CO3 (stereo not given) + CN1CCN(c2cc(C(=O)Nc3cc4cc(-c5cnn(C)c5)ccc4cn3)ccn2)CC1")
2.24
>>> measured("CC(CO)NC(=O)c1cc(-c2ccc(Cl)cc2)nn(-c2cnn(C)c2)c1=O (stereo not given) + CN1CCN(c2cc(C(=O)Nc3cc4cc(-c5cnn(C)c5)ccc4cn3)ccn2)CC1")
1.69
>>> measured("C=CC(=O)N1CCN(c2nc(=O)n(-c3c(C)ccnc3C(C)C)c3nc(-c4c(O)cccc4F)c(F)cc23)C(C)C1 (stereo not given) + CNC(=O)c1ccc(Nc2nc(OC3CCCC3)c3c(-c4ccc5nc(C)oc5c4)c[nH]c3n2)c(OC)c1")
82.8
>>> measured("Nc1ccn(C2OC(CO)C(O)C2(F)F)c(=O)n1 (stereo not given) + CNC(=O)c1ccc(Nc2nc(OC3CCCC3)c3c(-c4ccc5nc(C)oc5c4)c[nH]c3n2)c(OC)c1")
17.2
>>> measured("COc1c(OCCCN2CCOCC2)ccc2c3n(c(=NC(=O)c4cnc(N)nc4)nc12)CCN3 + CNC(=O)c1ccc(Nc2nc(OC3CCCC3)c3c(-c4ccc5nc(C)oc5c4)c[nH]c3n2)c(OC)c1")
30.5
